Kindly supply the reported viability at 30 µM values for the records listed here.
PROTOCOL_DETAILS: Cell viability assay of HEK293 cells treated with inhibitors and menadione
Assay type: cell-based, human
TEST_CONTEXT: human, HEK293 cells, 30 µM compound, w/o Menadione, 20240508 plate 013, DMSO Ko no Mendione = 100
One number for each entry, in %.

The cases that follow already have their viability at 30 µM on record.
| SUBSTANCE_SMILES | viability at 30 µM, % |
| --- | --- |
| Nc1nccc(Nc2ccc(NC(=O)c3ccc(Nc4ncnc5ccccc45)cc3)cc2)n1 | 85.9 |
| Nc1cc(Nc2ccc(NC(=O)c3ccc(Nc4ccnc5ccccc45)cc3)cc2)ccn1 | 98.7 |

query: Would you mind telling me what viability at 30 µM value was observed for Cc1cc(Nc2ccc(NC(=O)c3ccc(Nc4ncnc5ccccc45)cc3)cc2)nc(N)n1 ?
result: 93.3

----------
PROTOCOL_DETAILS: Cell viability assay of HEK293 cells treated with inhibitors and menadione
Format: cell-based, human
TEST_CONTEXT: human, HEK293 cells, 7.5 µM compound, w/o Menadione, 20240515 plate 014, DMSO Ko no Mendione = 100
MEASURE_NAME: viability at 7.5 µM

| SUBSTANCE_SMILES | viability at 7.5 µM |
| --- | --- |
| Cc1cc(Nc2ccc(NC(=O)c3ccc(Nc4ncnc5ccccc45)cc3)cc2)nc(N)n1 | 95.1% |

Could you report viability at 7.5 µM for every entry in the following list?
1. Nc1nccc(Nc2ccc(NC(=O)c3ccc(Nc4ncnc5ccccc45)cc3)cc2)n1
2. Nc1cc(Nc2ccc(NC(=O)c3ccc(Nc4ccnc5ccccc45)cc3)cc2)ccn1

result:
86.8%
96%

----------
For each entry below, report its Raw data [w Enyzm] value.
STUDY_SYSTEM: Rlig1-AMP (Homo sapiens, UniProt Q8N999)
Construct: made in house; host or cells: E. coli BL21 (DE3), pET15b-Rlig1
Sequence (Q8N999 whole entry): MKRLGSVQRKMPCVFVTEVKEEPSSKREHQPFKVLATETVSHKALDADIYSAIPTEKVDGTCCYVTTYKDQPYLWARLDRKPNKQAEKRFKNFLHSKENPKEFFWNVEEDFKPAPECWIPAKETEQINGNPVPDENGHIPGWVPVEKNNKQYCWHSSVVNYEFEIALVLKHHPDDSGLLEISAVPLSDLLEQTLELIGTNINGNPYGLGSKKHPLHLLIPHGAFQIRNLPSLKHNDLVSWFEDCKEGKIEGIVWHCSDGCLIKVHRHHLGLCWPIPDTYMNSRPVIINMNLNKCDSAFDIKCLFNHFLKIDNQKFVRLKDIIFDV
PROTOCOL_DETAILS: FRET-based high-throughput screening of inhibitors for Rlig1-AMP
Assay type: biochemical
TEST_CONTEXT: HTS hits; with enzyme
Give bare numbers.

Would you please look over these solved cases?
| COMPOUND | STUDY_SYSTEM | Raw data [w Enyzm] |
| --- | --- | --- |
| O=C(O)c1cc(O)c2c(c1)[C@H]([C@H]1c3cc(C(=O)O)cc(O)c3C(=O)c3c(O[C@@H]4O[C@H](CO)[C@@H](O)[C@H](O)[C@H]4O)cccc31)c1cccc(O[C@@H]3O[C@H](CO)[C@@H](O)[C@H](O)[C@H]3O)c1C2=O [Sennoside A] | Rlig1-AMP (Homo sapiens, UniProt Q8N999) | 4442 |
| CC(=O)Nc1ccc(S(=O)(=O)[O-])c2cc(S(=O)(=O)[O-])c(N=Nc3ccc(N=Nc4ccc(S(=O)(=O)[O-])cc4)c4ccc(S(=O)(=O)[O-])cc34)c(O)c12.[Na+].[Na+].[Na+].[Na+] | Rlig1-AMP (Homo sapiens, UniProt Q8N999) | 1620 |
| Cc1cc(-c2cc(O)ccc2Cl)cc2nnc(Nc3ccc(OCCN4CCCC4)cc3)nc12.Cl [TG 100572 (Hydrochloride)] | Rlig1-AMP (Homo sapiens, UniProt Q8N999) | 3376 |

Now look at this one.
query: Which value of Raw data [w Enyzm] has been reported for CC(C)c1nc2c([nH]1)-c1ccccc1C(=O)C2=O in the records?
result: 12041

----------
PROTOCOL_DETAILS: Cell viability assay of HEK293 cells treated with inhibitors and menadione
Format: cell-based, human
TEST_CONTEXT: human, HEK293 cells, 60 µM compound, w/o Menadione, 20240508 plate 013, DMSO Ko no Mendione = 100
Field: viability at 60 µM. Provide a value for each of the molecules that follow.
Give bare numbers, in %.

| MOLECULE | viability at 60 µM, % |
| --- | --- |
| Nc1cc(Nc2ccc(NC(=O)c3ccc(Nc4ccnc5ccccc45)cc3)cc2)ccn1 [Compound 36] | 89.4 |

// moving on: another record for viability at 60 µM
query: I am curious: what viability at 60 µM value has been reported for Nc1nccc(Nc2ccc(NC(=O)c3ccc(Nc4ncnc5ccccc45)cc3)cc2)n1 [Compound 47] ?
result: 78.2

----------
PROTOCOL_DETAILS: in vitro
TEST_CONTEXT: human
MEASURE_NAME: viability at 24 h, 0.9375 µM (%)
One number for each entry, in %.

Take a look at these entries with their results.
| COMPOUND | MEASURE_NAME | VAL |
| --- | --- | --- |
| Cc1cc(Nc2ccc(NC(=O)c3ccc(Nc4ccnc5[nH]ccc45)cc3)cc2)nc(N)n1 | viability at 24 h, 0.9375 µM | 97.1 |
| Cc1cc(Nc2ccc(NC(=O)c3ccc(Nc4ccnc5ccccc45)cc3)cc2)nc(N)n1 [Compound 1, SGI-1027, reference compound] | viability at 24 h, 0.9375 µM | 104 |
| Cc1cc(Nc2ccc(NC(=O)c3ccc(Nc4ncnc5ccccc45)cc3)cc2)nc(N)n1 | viability at 24 h, 0.9375 µM | 105 |
| Nc1nccc(Nc2ccc(NC(=O)c3ccc(Nc4ncnc5ccccc45)cc3)cc2)n1 | viability at 24 h, 0.9375 µM | 102 |

Then there is this compound:
query: Look up viability at 24 h, 0.9375 µM for this compound: Nc1cc(Nc2ccc(NC(=O)c3ccc(Nc4ccnc5ccccc45)cc3)cc2)ccn1
result: 104

----------
For each entry below, report its Raw data [w/o Enzym] value.
STUDY_SYSTEM: Rlig1-AMP (Homo sapiens, UniProt Q8N999)
Construct: made in house; host or cells: E. coli BL21 (DE3), pET15b-Rlig1
PROTOCOL_DETAILS: FRET-based high-throughput screening of inhibitors for Rlig1-AMP
Assay type: biochemical
TEST_CONTEXT: sheet HTS hits; without enzyme
Numbers only.

// solved cases for Raw data [w/o Enzym] follow
| MOLECULE | MEASURE_NAME | VAL |
| --- | --- | --- |
| C[C@]12C=CC(=O)N[C@@H]1CC[C@@H]1[C@@H]2CC[C@]2(C)[C@@H](C(=O)Nc3cc(C(F)(F)F)ccc3C(F)(F)F)CC[C@@H]12 [Dutasteride] | Raw data [w/o Enzym] | 10760 |
| CO[C@H]1/C=C/O[C@@]2(C)Oc3c(C)c(O)c4c(O)c(c(/C=N/N5CCN(C6CCCC6)CC5)c(O)c4c3C2=O)NC(=O)/C(C)=C\C=C\[C@H](C)[C@H](O)[C@@H](C)[C@@H](O)[C@@H](C)[C@H](OC(C)=O)[C@@H]1C [Rifapentine] | Raw data [w/o Enzym] | 6397 |
| O=C1c2ccccc2-c2nc3nonc3nc21 [SMER3] | Raw data [w/o Enzym] | 13771 |
| CC1=NN(c2ccc(C)c(C)c2)C(=O)/C1=N\Nc1cccc(-c2cccc(C(=O)O)c2)c1O.NCCO.NCCO [Eltrombopag (Olamine)] | Raw data [w/o Enzym] | 4363 |
| O=C1O[C@@H]2[C@@H](O)[C@H](O)[C@@H](CO)O[C@H]2c2c1cc(O)c(O)c2O [Norbergenin] | Raw data [w/o Enzym] | 10928 |

Please examine the following record next.
query: Sample COc1ccc(-c2coc3cc(O)cc(O)c3c2=O)cc1 [Biochanin A] — what was its Raw data [w/o Enzym]?
result: 10481

----------
STUDY_SYSTEM: Rlig1-AMP (Homo sapiens)
Construct: made in house; host or cells: E. coli BL21 (DE3), pET15b-Rlig1
PROTOCOL_DETAILS: Radioactive RNA ligation assay (hit validation, 10 µM test and IC50 determination)
Type: biochemical
TEST_CONTEXT: four-parameter fit, n = 3; read-out: IC50 (best-fit value)
MEASURE_NAME: IC50 (µM)
One number for each entry, in µM.

Below: 2 molecules and their reported IC50.
| MOLECULE | STUDY_SYSTEM | VAL |
| --- | --- | --- |
| Cc1cc(Nc2ccc(NC(=O)c3ccc(Nc4ccnc5[nH]ccc45)cc3)cc2)nc(N)n1 [Compound 46] | Rlig1-AMP (Homo sapiens) | 7.1 |
| Cc1cc(Nc2ccc(NC(=O)c3ccc(Nc4ncnc5ccccc45)cc3)cc2)nc(N)n1 [Compound 45] | Rlig1-AMP (Homo sapiens) | 7.02 |

Moving on to the next molecule.
query: // query IC50 value for entry Nc1cc(Nc2ccc(NC(=O)c3ccc(Nc4ccnc5ccccc45)cc3)cc2)ccn1 [Compound 36]
result: 3.86

----------
STUDY_SYSTEM: Rlig1-AMP (Homo sapiens, UniProt Q8N999)
Construct: made in house; host or cells: E. coli BL21 (DE3), pET15b-Rlig1
PROTOCOL_DETAILS: Radioactive RNA ligation assay (hit validation, 10 µM test and IC50 determination)
Format: biochemical
TEST_CONTEXT: log(inhibitor) vs. response, variable slope (four parameters)
MEASURE_NAME: Bottom (best-fit value)

Each of the following entries comes with a recorded value; kindly state Bottom (best-fit value) for each.
1. Nc1nc(Nc2ccc(NC(=O)c3ccc(Nc4ccnc5ccccc45)cc3)cc2)cc(C(F)(F)F)n1 [Compound 41]
2. Nc1nccc(Nc2ccc(NC(=O)c3ccc(Nc4ccnc5ccccc45)cc3)cc2)n1 [Compound 26]
3. Cc1cc(Nc2ccc(NC(=O)c3ccc(Nc4ncnc5ccccc45)cc3)cc2)nc(N)n1 [Compound 45]
4. Nc1nccc(Nc2ccc(NC(=O)c3ccc(Nc4ncnc5ccccc45)cc3)cc2)n1 [Compound 47]

result:
[6.221, 2.425, 7.303, 5.434]

Data provenance: paper PMC11747885
